system: 4T1; experiment: Inhibition of mouse 4T1 cells adhesion to gelatinous matrix protein-coated surface after 60 mins by ELISA; type: functional, cell-based; settings: 4T1, 1 h
EXPERIMENTAL_READOUT: IC50 (nM)
Number only, in nM; omit the unit.

Cc1c(C)c2c(c(C)c1OC(=O)CCC(=O)O)CC[C@](C)(/C=C/CC(C)CCCC(C)C)O2 (stereo not given in full) : 1300
Cc1c(C)c2c(c(C)c1OC(=O)CCC(=O)O)CC[C@@](C)(CCC[C@H](C)CCC[C@H](C)CCCC(C)C)O2 [(+)-ALPHA-TOCOPHERYL SUCCINATE] : 10000
Cc1c(C)c2c(c(C)c1OCC(=O)O)CC[C@](C)(CCCC(C)CCCC(C)C)O2 (stereo not given in full) : 2000

Fill in: IC50 of Cc1c(C)c2c(c(C)c1OCC(=O)O)CC[C@](C)(/C=C/CC(C)CCCC(C)C)O2 (stereo not given in full) is ___
600

// returns reported IC50 for input Cc1c(C)c2c(c(C)c1OC(=O)CCC(=O)O)CC[C@](C)(CCCC(C)CCCC(C)C)O2 (stereo not given in full)
2500

* * *

target: UniProt P34152; assay: Induction of FAK degradation in mouse 4T1 cells at 5 uM after 1 hr by Western blotting; assay type: cell-based
Sequence (P34152 whole entry): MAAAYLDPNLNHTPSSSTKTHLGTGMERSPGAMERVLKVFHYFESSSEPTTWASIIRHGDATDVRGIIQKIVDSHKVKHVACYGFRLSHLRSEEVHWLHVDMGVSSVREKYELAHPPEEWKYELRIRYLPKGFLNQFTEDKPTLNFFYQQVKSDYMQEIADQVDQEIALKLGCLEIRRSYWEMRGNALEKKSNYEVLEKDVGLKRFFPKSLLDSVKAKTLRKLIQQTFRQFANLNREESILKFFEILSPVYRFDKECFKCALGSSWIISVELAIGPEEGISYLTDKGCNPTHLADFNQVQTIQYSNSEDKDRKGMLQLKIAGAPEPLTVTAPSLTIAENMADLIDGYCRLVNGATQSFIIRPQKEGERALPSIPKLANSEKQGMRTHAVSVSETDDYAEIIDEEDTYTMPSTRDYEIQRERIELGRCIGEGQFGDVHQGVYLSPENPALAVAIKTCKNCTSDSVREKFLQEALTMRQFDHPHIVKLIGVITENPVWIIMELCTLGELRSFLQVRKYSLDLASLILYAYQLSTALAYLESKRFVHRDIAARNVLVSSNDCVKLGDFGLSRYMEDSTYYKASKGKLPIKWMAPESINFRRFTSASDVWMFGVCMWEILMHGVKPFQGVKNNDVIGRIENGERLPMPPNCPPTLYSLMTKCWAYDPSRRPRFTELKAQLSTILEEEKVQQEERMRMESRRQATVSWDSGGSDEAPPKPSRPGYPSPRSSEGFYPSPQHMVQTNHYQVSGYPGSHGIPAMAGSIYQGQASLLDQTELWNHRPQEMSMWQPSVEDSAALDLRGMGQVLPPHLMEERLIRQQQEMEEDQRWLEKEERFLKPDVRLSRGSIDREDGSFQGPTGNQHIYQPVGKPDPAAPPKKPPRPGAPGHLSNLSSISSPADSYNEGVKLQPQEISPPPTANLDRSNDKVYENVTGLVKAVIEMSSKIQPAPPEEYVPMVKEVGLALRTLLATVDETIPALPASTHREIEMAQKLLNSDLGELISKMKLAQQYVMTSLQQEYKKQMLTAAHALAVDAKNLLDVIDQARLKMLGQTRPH
Active and inactive are the calls of the source. No cut-off for these calls is given here.
The categories you may choose from are active, inactive

What was the test verdict on Cc1c(C)c2c(c(C)c1OC(=O)CCC(=O)O)CC[C@@](C)(CCC[C@H](C)CCC[C@H](C)CCCC(C)C)O2 [(+)-ALPHA-TOCOPHERYL SUCCINATE] ?
inactive

Dear all, I need the recorded test outcome for Cc1c(C)c2c(c(C)c1OC(=O)CCC(=O)O)CC[C@](C)(/C=C/CC(C)CCCC(C)C)O2 (some centres undefined) , thank you.
active

For this compound, state the assay outcome: Cc1c(C)c2c(c(C)c1OC(=O)CCC(=O)O)CC[C@](C)(CCCC(C)CCCC(C)C)O2 (some centres undefined)
inactive

Could you check what this test reported for Cc1c(C)c2c(c(C)c1OCC(=O)O)CC[C@](C)(CCCC(C)CCCC(C)C)O2 (some centres undefined) ?
active
